All values here come from ChEMBL document CHEMBL1140340.

Target: Norepinephrine transporter (Rattus norvegicus, UniProt Q9WTR4)
Sequence (Q9WTR4 whole entry): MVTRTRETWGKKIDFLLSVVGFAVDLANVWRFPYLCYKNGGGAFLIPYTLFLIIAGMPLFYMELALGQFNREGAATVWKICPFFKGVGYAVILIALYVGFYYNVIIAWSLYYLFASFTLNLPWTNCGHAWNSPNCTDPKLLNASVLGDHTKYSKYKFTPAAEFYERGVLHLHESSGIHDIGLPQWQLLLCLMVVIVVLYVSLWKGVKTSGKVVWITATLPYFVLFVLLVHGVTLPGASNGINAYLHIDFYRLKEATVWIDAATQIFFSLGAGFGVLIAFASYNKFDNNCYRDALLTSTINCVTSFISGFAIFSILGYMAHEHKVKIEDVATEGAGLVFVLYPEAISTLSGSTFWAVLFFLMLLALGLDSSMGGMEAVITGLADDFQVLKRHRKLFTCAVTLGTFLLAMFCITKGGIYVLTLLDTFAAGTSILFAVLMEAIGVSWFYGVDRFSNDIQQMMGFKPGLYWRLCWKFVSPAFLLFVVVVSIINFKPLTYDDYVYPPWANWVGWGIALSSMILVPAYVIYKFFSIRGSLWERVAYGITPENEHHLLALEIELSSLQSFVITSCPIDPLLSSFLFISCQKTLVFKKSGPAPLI
Test: Inhibition of rat brain Norepinephrine transporter as accumulation of [3H]NE
endpoint.name: pIC50
Quick note: pIC50 means taking -log10 of the concentration in moles per liter.

Solved cases (2 shown):
molecule	pIC50
O[C@@H]1C[C@@H](C(c2ccccc2)c2ccccc2)OC[C@H]1NCc1ccc(F)cc1	7.88
COc1cc(CN[C@@H]2CO[C@H](C(c3ccccc3)c3ccccc3)C[C@H]2O)cc(OC)c1	6.97

Next, consider the following molecule.
Record OC1CC(C(c2ccccc2)c2ccccc2)OCC1NCc1ccc(F)cc1 (single isomer, unassigned) . Reported pIC50: 5.95
